Origin of measurements: paper PMC11931385

Target: T1, Rb^P V654L (human, UniProt P06400 380-788, V654L)
T1 construct: also called variant 47
T1 sequence (looked up): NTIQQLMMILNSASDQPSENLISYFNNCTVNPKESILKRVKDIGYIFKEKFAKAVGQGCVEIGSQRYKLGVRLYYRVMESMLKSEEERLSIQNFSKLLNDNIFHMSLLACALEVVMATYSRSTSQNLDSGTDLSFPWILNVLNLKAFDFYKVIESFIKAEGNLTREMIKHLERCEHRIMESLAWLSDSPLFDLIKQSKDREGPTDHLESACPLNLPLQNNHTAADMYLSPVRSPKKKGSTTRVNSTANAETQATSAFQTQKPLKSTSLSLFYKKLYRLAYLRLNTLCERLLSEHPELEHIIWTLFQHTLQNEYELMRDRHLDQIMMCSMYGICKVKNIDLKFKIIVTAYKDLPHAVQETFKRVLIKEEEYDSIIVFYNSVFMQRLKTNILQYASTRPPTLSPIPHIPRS
Assay: fluorescence polarisation; 37 °C, after the 25 °C reading ramped over 7 min to 37 °C and 2 min incubation; unlabeled Rb^P against 1.5 nM TMR-E2F1^TD or 7.5 nM TMR-E7^LxCxE; 25 mM Tris pH 8.0, 200 mM NaCl, 1 mM DTT, 0.1% Tween-20; apparent Kd
Conditions: both partners purified
No end group written: not given here. TMR = tetramethyl rhodamine dye
Items are presented alongside their recorded Kd.
Enter the number, and then the unit.

Data point: DLYCYEQLN (also: TMR label, position not given here, source: synthetic peptide, bought: GenScript) [TMR-E7^LxCxE, LxCxE peptide of the E7 oncoprotein from HPV] ; Kd = 21 nM

From here, focus on the item given below.
Data point: {TMR}-GEGIRDLFDCDFGDLTPLD (also called E2F^TD; source: synthetic peptide, bought: GenScript) [TMR-E2F1^TD, peptide of the E2F1 transactivation domain] ; Kd = 30 nM
